Reference for the values: patent US20260078103A1

Tested on: phosphorylation of AKT (pAKT) in T47D cells expressing mutant PI3Ka (H1047R)
method-description: In vitro cell pAKT (Ser473) HTRF, T47D cells
Type: cell-based
measurement-parameters: Homo sapiens, T47D, 6 h, cellular pAKT, T47D cells, mutant PI3Ka (H1047R), 6 hours; read-out: Avg T-47D IC50
Measured IC50 accompanies every entry in the list below.

Below are worked cases with known answers.
# compound, obs-value
measured = [
    ("C[C@@H](Nc1ccccc1C(=O)O)c1cc(F)cc2c(=O)n(C)c(-c3cc(F)c4nn(C(F)F)cc4c3)cc12 [Example 496]", "1 to 500 nM"),
    ("C[C@@H](Nc1ccccc1C(=O)O)c1cc(F)cc2c(=O)n(C)c(-c3ccc(OCC(F)(F)F)nc3)c(F)c12 [Example 547]", "1 to 500 nM"),
    ("Cc1cc([C@@H](C)Nc2ccccc2C(=O)O)c2cc(-c3ccc(OC4CC4)nc3)n(C)c(=O)c2c1 [Example 216]", "1 to 500 nM"),
    ("COCCC(=O)N1CCN(c2cc3c(C(C)Nc4ccccc4C(=O)O)cc(C)cc3c(=O)n2C)CC1 (centres unmarked) [Example 95]", "500 to 2000 nM"),
    ("Cc1nc(C(F)(F)F)c(F)cc1-c1ncc(-c2cc3c([C@@H](C)Nc4ccccc4C(=O)O)cc(F)cc3c(=O)n2C)cc1F [Example 576]", "1 to 500 nM"),
]

Data request: Name the recorded IC50 for Cc1cc([C@@H](C)Nc2cccc(F)c2C(=O)O)c2cc(C3CC3)n(C)c(=O)c2c1 [Example 320] .
Data returned: 1 to 500 nM
